measurementTarget: T1, AFP158/HLA-A*02:01 complex (human)
T1 construct: flowed over the chip in SPR; also called AFP158 pro
measurementNotes: SPR, scFv captured, pMHC in flow;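 note: complex injected at several concentrations over crude scFv, association then running-buffer dissociation, KD estimated from kinetic on- and off-rate constants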
metric: pKd
Give only the number. pKd is defined as minus log10 of concentration in molar units.

Please review the following examples before continuing.
[
  {
    "binder": "LH98W (scFv, AS170036 VL1VH1 scFv mutein) scFv: QSALTQPRSVSGSPGQSVTISCAGTSSDVGSENYVSWYQQHPGKAPKLMIYQVNKRASGVPDRFSGSKSGNTASLTISGLQAEDEADYYCASYRSSDWNIVFGGGTKLTVLGGGGSGGGGSGGGGSEVQLVESGGGLVQPGGSLRLSCAASGFTFSSYAMSWVRQAPGKGLEWVSTINSGTGSPYYADSVKGRFTISRDNSKNTLYLQMNSLRAEDTAVYYCAKNFFDGSWFLGPPAMDYWGQGTLVTVSSHHHHHH",
    "pKd": 6.70
  },
  {
    "binder": "LY93N (scFv, AS170036 VL1VH1 scFv mutein) scFv: QSALTQPRSVSGSPGQSVTISCAGTSSDVGSENYVSWYQQHPGKAPKLMIYQVNKRASGVPDRFSGSKSGNTASLTISGLQAEDEADYYCASNRSSDHNIVFGGGTKLTVLGGGGSGGGGSGGGGSEVQLVESGGGLVQPGGSLRLSCAASGFTFSSYAMSWVRQAPGKGLEWVSTINSGTGSPYYADSVKGRFTISRDNSKNTLYLQMNSLRAEDTAVYYCAKNFFDGSWFLGPPAMDYWGQGTLVTVSSHHHHHH",
    "pKd": 5.85
  },
  {
    "binder": "LE32W (scFv, AS170036 VL1VH1 scFv mutein; also called AS170036 VL1VH1-VLE32W) scFv: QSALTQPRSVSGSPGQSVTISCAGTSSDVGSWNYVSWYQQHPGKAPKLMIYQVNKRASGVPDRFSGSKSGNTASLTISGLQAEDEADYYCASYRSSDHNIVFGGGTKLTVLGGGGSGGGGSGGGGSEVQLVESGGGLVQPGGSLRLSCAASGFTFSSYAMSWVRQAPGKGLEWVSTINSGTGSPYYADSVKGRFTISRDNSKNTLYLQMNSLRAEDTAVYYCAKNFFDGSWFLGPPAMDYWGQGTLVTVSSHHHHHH",
    "pKd": 7.00
  },
  {
    "binder": "LD97I (scFv, AS170036 VL1VH1 scFv mutein) scFv: QSALTQPRSVSGSPGQSVTISCAGTSSDVGSENYVSWYQQHPGKAPKLMIYQVNKRASGVPDRFSGSKSGNTASLTISGLQAEDEADYYCASYRSSIHNIVFGGGTKLTVLGGGGSGGGGSGGGGSEVQLVESGGGLVQPGGSLRLSCAASGFTFSSYAMSWVRQAPGKGLEWVSTINSGTGSPYYADSVKGRFTISRDNSKNTLYLQMNSLRAEDTAVYYCAKNFFDGSWFLGPPAMDYWGQGTLVTVSSHHHHHH",
    "pKd": 6.19
  }
]

Moving on to the next binder.
Measured pKd, LY34W (scFv, AS170036 VL1VH1 scFv mutein) scFv: QSALTQPRSVSGSPGQSVTISCAGTSSDVGSENWVSWYQQHPGKAPKLMIYQVNKRASGVPDRFSGSKSGNTASLTISGLQAEDEADYYCASYRSSDHNIVFGGGTKLTVLGGGGSGGGGSGGGGSEVQLVESGGGLVQPGGSLRLSCAASGFTFSSYAMSWVRQAPGKGLEWVSTINSGTGSPYYADSVKGRFTISRDNSKNTLYLQMNSLRAEDTAVYYCAKNFFDGSWFLGPPAMDYWGQGTLVTVSSHHHHHH : 6.39

The reported measurements were obtained from patent US20240279318A1.
